Settings: in n-butyl acetate, 313.25 K
Property measured: solubility (mole fraction)

INSERT INTO results (item_smiles, reported_result) VALUES
  ('Clc1ccccc1C(c1ccccc1)(c1ccccc1)n1ccnc1', 0.0211);

====

Conditions: in n-propyl acetate, 283.15 K
Property measured: solubility (mole fraction)

INSERT INTO assay_data (item_smiles, reported_result) VALUES
  ('Clc1ccccc1C(c1ccccc1)(c1ccccc1)n1ccnc1', 0.008);

====

Settings: in methyl acetate, 288.17 K
Property measured: solubility (mole fraction)

INSERT INTO assay_data (item_smiles, property_measured, reported_result) VALUES
  ('Clc1ccccc1C(c1ccccc1)(c1ccccc1)n1ccnc1', 'solubility (mole fraction)', 0.00792);

====

Conditions: in ethyl acetate, 298.15 K
Property measured: solubility (mole fraction)

INSERT INTO assay_data (item_smiles, reported_result) VALUES
  ('Clc1ccccc1C(c1ccccc1)(c1ccccc1)n1ccnc1', 0.0119);

====

Conditions: in ethyl acetate, 323.19 K
Property measured: solubility (mole fraction)

INSERT INTO results (item_smiles, reported_result) VALUES
  ('Clc1ccccc1C(c1ccccc1)(c1ccccc1)n1ccnc1', 0.0275);

====

Conditions: in n-propanol, 288.12 K
Property measured: solubility (mole fraction)

INSERT INTO assay_data (item_smiles, property_measured, reported_result) VALUES
  ('Clc1ccccc1C(c1ccccc1)(c1ccccc1)n1ccnc1', 'solubility (mole fraction)', 0.0172);

====

Conditions: in n-octanol, 318.09 K
Property measured: solubility (mole fraction)

INSERT INTO measurements (item_smiles, property_measured, reported_result) VALUES
  ('Clc1ccccc1C(c1ccccc1)(c1ccccc1)n1ccnc1', 'solubility (mole fraction)', 0.0553);

====

Conditions: in sec-butanol, 293.21 K
Property measured: solubility (mole fraction)

INSERT INTO assay_data (item_smiles, reported_result) VALUES
  ('Clc1ccccc1C(c1ccccc1)(c1ccccc1)n1ccnc1', 0.0165);

====

Conditions: in n-butyl acetate, 323.13 K
Property measured: solubility (mole fraction)

INSERT INTO results (item_smiles, property_measured, reported_result) VALUES
  ('Clc1ccccc1C(c1ccccc1)(c1ccccc1)n1ccnc1', 'solubility (mole fraction)', 0.0299);

====

Conditions: in n-pentanol, 323.17 K
Property measured: solubility (mole fraction)

INSERT INTO measurements (item_smiles, reported_result) VALUES
  ('Clc1ccccc1C(c1ccccc1)(c1ccccc1)n1ccnc1', 0.085);

====

Details: in n-heptanol, 288.14 K
Property measured: solubility (mole fraction)

INSERT INTO measurements (item_smiles, reported_result) VALUES
  ('Clc1ccccc1C(c1ccccc1)(c1ccccc1)n1ccnc1', 0.0151);

====

Conditions: in isopentanol, 283.13 K
Property measured: solubility (mole fraction)

INSERT INTO assay_data (item_smiles, reported_result) VALUES
  ('Clc1ccccc1C(c1ccccc1)(c1ccccc1)n1ccnc1', 0.0157);

====

Settings: in methyl acetate, 283.15 K
Property measured: solubility (mole fraction)

INSERT INTO assay_data (item_smiles, reported_result) VALUES
  ('Clc1ccccc1C(c1ccccc1)(c1ccccc1)n1ccnc1', 0.00661);

====

Conditions: in n-propyl acetate, 298.17 K
Property measured: solubility (mole fraction)

INSERT INTO assay_data (item_smiles, reported_result) VALUES
  ('Clc1ccccc1C(c1ccccc1)(c1ccccc1)n1ccnc1', 0.0132);

====

Conditions: in methyl propionate, 318.19 K
Property measured: solubility (mole fraction)

INSERT INTO assay_data (item_smiles, reported_result) VALUES
  ('Clc1ccccc1C(c1ccccc1)(c1ccccc1)n1ccnc1', 0.0316);

====

Settings: in n-octanol, 308.22 K
Property measured: solubility (mole fraction)

INSERT INTO measurements (item_smiles, reported_result) VALUES
  ('Clc1ccccc1C(c1ccccc1)(c1ccccc1)n1ccnc1', 0.0366);

====

Settings: in n-pentanol, 283.19 K
Property measured: solubility (mole fraction)

INSERT INTO results (item_smiles, property_measured, reported_result) VALUES
  ('Clc1ccccc1C(c1ccccc1)(c1ccccc1)n1ccnc1', 'solubility (mole fraction)', 0.0169);

====

Conditions: in isopropyl acetate, 288.16 K
Property measured: solubility (mole fraction)

INSERT INTO measurements (item_smiles, reported_result) VALUES
  ('Clc1ccccc1C(c1ccccc1)(c1ccccc1)n1ccnc1', 0.00615);

====

Conditions: in isobutanol, 283.09 K
Property measured: solubility (mole fraction)

INSERT INTO results (item_smiles, property_measured, reported_result) VALUES
  ('Clc1ccccc1C(c1ccccc1)(c1ccccc1)n1ccnc1', 'solubility (mole fraction)', 0.0157);

====

Details: in isopropyl acetate, 318.19 K
Property measured: solubility (mole fraction)

INSERT INTO measurements (item_smiles, reported_result) VALUES
  ('Clc1ccccc1C(c1ccccc1)(c1ccccc1)n1ccnc1', 0.0171);

====

Conditions: in sec-butanol, 283.15 K
Property measured: solubility (mole fraction)

INSERT INTO results (item_smiles, reported_result) VALUES
  ('Clc1ccccc1C(c1ccccc1)(c1ccccc1)n1ccnc1', 0.0101);

====

Conditions: in isobutanol, 293.11 K
Property measured: solubility (mole fraction)

INSERT INTO assay_data (item_smiles, reported_result) VALUES
  ('Clc1ccccc1C(c1ccccc1)(c1ccccc1)n1ccnc1', 0.0251);

====

Details: in n-butyl acetate, 288.19 K
Property measured: solubility (mole fraction)

INSERT INTO results (item_smiles, reported_result) VALUES
  ('Clc1ccccc1C(c1ccccc1)(c1ccccc1)n1ccnc1', 0.00886);

====

Settings: in isobutanol, 323.18 K
Property measured: solubility (mole fraction)

INSERT INTO assay_data (item_smiles, reported_result) VALUES
  ('Clc1ccccc1C(c1ccccc1)(c1ccccc1)n1ccnc1', 0.0873);

====

Settings: in methyl acetate, 298.21 K
Property measured: solubility (mole fraction)

INSERT INTO results (item_smiles, reported_result) VALUES
  ('Clc1ccccc1C(c1ccccc1)(c1ccccc1)n1ccnc1', 0.0114);

====

Settings: in n-propanol, 308.15 K
Property measured: solubility (mole fraction)

INSERT INTO results (item_smiles, reported_result) VALUES
  ('Clc1ccccc1C(c1ccccc1)(c1ccccc1)n1ccnc1', 0.0405);

====

Details: in n-butyl acetate, 298.16 K
Property measured: solubility (mole fraction)

INSERT INTO results (item_smiles, reported_result) VALUES
  ('Clc1ccccc1C(c1ccccc1)(c1ccccc1)n1ccnc1', 0.0124);

====

Settings: in n-heptanol, 293.18 K
Property measured: solubility (mole fraction)

INSERT INTO assay_data (item_smiles, property_measured, reported_result) VALUES
  ('Clc1ccccc1C(c1ccccc1)(c1ccccc1)n1ccnc1', 'solubility (mole fraction)', 0.0198);

====

Details: in n-hexanol, 298.15 K
Property measured: solubility (mole fraction)

INSERT INTO results (item_smiles, property_measured, reported_result) VALUES
  ('Clc1ccccc1C(c1ccccc1)(c1ccccc1)n1ccnc1', 'solubility (mole fraction)', 0.0287);

====

Conditions: in n-hexanol, 288.13 K
Property measured: solubility (mole fraction)

INSERT INTO assay_data (item_smiles, reported_result) VALUES
  ('Clc1ccccc1C(c1ccccc1)(c1ccccc1)n1ccnc1', 0.0185);

====

Details: in n-butanol, 288.11 K
Property measured: solubility (mole fraction)

INSERT INTO measurements (item_smiles, reported_result) VALUES
  ('Clc1ccccc1C(c1ccccc1)(c1ccccc1)n1ccnc1', 0.0188);

====

Settings: in n-butanol, 303.14 K
Property measured: solubility (mole fraction)

INSERT INTO measurements (item_smiles, reported_result) VALUES
  ('Clc1ccccc1C(c1ccccc1)(c1ccccc1)n1ccnc1', 0.0356);

====

Conditions: in isopropanol, 323.15 K
Property measured: solubility (mole fraction)

INSERT INTO results (item_smiles, reported_result) VALUES
  ('Clc1ccccc1C(c1ccccc1)(c1ccccc1)n1ccnc1', 0.0384);

====

Details: in ethyl acetate, 283.11 K
Property measured: solubility (mole fraction)

INSERT INTO results (item_smiles, reported_result) VALUES
  ('Clc1ccccc1C(c1ccccc1)(c1ccccc1)n1ccnc1', 0.00714);

====

Conditions: in n-propanol, 323.18 K
Property measured: solubility (mole fraction)

INSERT INTO measurements (item_smiles, property_measured, reported_result) VALUES
  ('Clc1ccccc1C(c1ccccc1)(c1ccccc1)n1ccnc1', 'solubility (mole fraction)', 0.0761);

====

Conditions: in n-propanol, 298.18 K
Property measured: solubility (mole fraction)

INSERT INTO assay_data (item_smiles, reported_result) VALUES
  ('Clc1ccccc1C(c1ccccc1)(c1ccccc1)n1ccnc1', 0.0263);

====

Conditions: in n-propyl acetate, 303.16 K
Property measured: solubility (mole fraction)

INSERT INTO measurements (item_smiles, reported_result) VALUES
  ('Clc1ccccc1C(c1ccccc1)(c1ccccc1)n1ccnc1', 0.0156);
